molecular target: human CD33 variant K52L (human, UniProt P20138 18-364); assay: flow cytometry, IgG on cells expressing the mutant
Sequence (P20138 18-364 K52L limits assumed): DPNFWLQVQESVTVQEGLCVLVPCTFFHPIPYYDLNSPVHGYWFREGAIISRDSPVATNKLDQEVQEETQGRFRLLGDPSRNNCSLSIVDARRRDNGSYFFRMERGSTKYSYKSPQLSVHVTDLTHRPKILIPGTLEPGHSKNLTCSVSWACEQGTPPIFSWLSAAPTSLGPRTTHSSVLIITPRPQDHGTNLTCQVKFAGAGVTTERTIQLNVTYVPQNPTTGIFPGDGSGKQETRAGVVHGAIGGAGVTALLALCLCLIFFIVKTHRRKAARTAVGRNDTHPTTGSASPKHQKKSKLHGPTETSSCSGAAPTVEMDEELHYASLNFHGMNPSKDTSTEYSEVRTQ
In this section, each of the binders is paired with its reported Mean % WT Binding.

Refmab #4 (antibody, human IgG1, V domains shown, Tested in IgG format; human IgG1 Fc silent (PG-LALA)) VH: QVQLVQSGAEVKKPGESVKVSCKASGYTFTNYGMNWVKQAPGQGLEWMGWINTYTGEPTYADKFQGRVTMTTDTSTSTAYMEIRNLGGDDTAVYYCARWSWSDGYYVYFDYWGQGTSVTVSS VL: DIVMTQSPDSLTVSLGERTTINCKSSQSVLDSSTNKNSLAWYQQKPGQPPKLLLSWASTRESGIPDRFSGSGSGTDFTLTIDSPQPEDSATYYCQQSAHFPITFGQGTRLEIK	88.1 % of WT
Refmab #3 (antibody, human IgG1, V domains shown, Tested in IgG format; human IgG1 Fc silent (PG-LALA)) VH: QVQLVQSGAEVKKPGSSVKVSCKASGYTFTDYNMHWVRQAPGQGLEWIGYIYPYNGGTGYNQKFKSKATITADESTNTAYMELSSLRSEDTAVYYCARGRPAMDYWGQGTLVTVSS VL: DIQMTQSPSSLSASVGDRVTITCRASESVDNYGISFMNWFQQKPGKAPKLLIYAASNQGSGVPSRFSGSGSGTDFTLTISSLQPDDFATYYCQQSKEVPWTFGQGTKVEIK	94.9 % of WT
Refmab #2 (antibody, human IgG1, V domains shown, Tested in IgG format; human IgG1 Fc silent (PG-LALA)) VH: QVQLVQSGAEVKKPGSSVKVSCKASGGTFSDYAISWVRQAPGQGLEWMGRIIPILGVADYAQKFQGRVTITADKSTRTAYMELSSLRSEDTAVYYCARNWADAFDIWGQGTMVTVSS VL: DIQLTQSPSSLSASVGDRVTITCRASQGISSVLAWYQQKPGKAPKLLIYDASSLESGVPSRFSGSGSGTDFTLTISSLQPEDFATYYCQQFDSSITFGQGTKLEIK	74.8 % of WT

Below: the item to evaluate.
For Refmab #1 (antibody, human IgG1, V domains shown, Tested in IgG format; human IgG1 (Absolute Antibody hP67.6, Cat. No. Ab00283-10.0); also called hP67.6) VH: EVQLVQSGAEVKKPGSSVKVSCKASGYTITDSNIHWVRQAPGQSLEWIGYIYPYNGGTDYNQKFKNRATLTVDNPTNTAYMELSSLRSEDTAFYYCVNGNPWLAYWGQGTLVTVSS VL: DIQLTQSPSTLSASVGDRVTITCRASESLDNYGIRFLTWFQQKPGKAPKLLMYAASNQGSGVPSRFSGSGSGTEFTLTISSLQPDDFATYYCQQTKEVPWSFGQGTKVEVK , write its Mean % WT Binding.
97.6 % of WT
